Reference source: PubChem BioAssay

Give measured viability for each item. Keep answers brief.
# Measurement protocol: reduced viability of SK-BR-3 breast cancer cells – cell-based, 24 h, human, pilot screen (AID 572);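 further: compound exposure lasted between 18 and 24 h rather than exactly 24 h; 100% = carrier-treated control wells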
# Conditions used: SK-BR-3 viability, CellTiter-Glo luminescence, at 10 µM, stronger effect = lower value
Write the answer as a number in %, unit excluded.

Recorded viability of CCOC(=O)C(C)Sc1nnc(Cc2cc(=O)[nH]c(=O)[nH]2)n1-c1ccc(Cl)cc1 (stereo not given) , please.
92.5

Recorded viability of COC(=O)Cn1c(=NC(=O)CSCC(=O)Nc2cc(C)on2)sc2ccccc21 , please.
89

Recorded viability of Cc1ccc2cc(CCNC(=O)C(C)C)c(=O)[nH]c2c1C , please.
87.5

Recorded viability of Cn1cc(Cl)c(C(=O)N(Cc2ccccc2)c2ccccn2)n1 , please.
98

Recorded viability of CN1C(=O)C(O)(CC(=O)c2ccccc2O)c2cc(Br)ccc21 (stereo not given) , please.
103

Recorded viability of Cc1cc(C)n2c(SCC(=O)Nc3cc(C)on3)nnc2n1 , please.
91.5

Recorded viability of CCN(CC)C(=O)Oc1ccccc1NC(C)=O , please.
102

Recorded viability of Cc1cc(NC(=O)CSc2nc3c(c(-c4cccnc4)c2C#N)CCC3)no1 , please.
65

Recorded viability of CCCOc1ccc2ccccc2c1/C=N/n1cnnc1 , please.
93

Recorded viability of CCOc1ccc(-c2nnc(N(CC)C(=O)C3CCC3)s2)cc1 , please.
87.5

Recorded viability of COc1cccc(C2C(C(N)=O)=C(C)Nc3nc(-c4ccccc4Cl)nn32)c1 (stereo not given) , please.
79.5

Recorded viability of CC1=C(C(=O)OCc2ccccc2)C(c2ccco2)n2ncnc2N1 (stereo not given) , please.
98.5

Recorded viability of Cc1noc(/C=C/N(C)C)c1S(=O)(=O)N1CCCC(C(=O)N2CCCCC2)C1 (stereo not given) , please.
84

Recorded viability of CN1CCN(Cc2nc3c(c(=O)n(C)c(=O)n3C)n2Cc2ccccc2Cl)CC1 , please.
80.5

Recorded viability of COc1ccc(-c2nnc(SCC(=O)N3CCOCC3)o2)cc1OC , please.
91

Recorded viability of COC(=O)C1=C(C)NC2=C(C(=O)CCC2)C1c1coc2ccccc2c1=O (stereo not given) , please.
91

Recorded viability of O=C(NCCN1CCOCC1)c1ccc2c(c1)N(Cc1ccccc1F)C(=O)CS2 , please.
94

Recorded viability of COc1ccccc1-n1c(=O)[nH]c2c(C(N)=O)nc(-c3cccnc3)nc21 , please.
82.5

Recorded viability of O=C(CN1CCN(Cc2ccc(F)cc2Cl)C1=O)NCCCN1CCOCC1 , please.
99

Recorded viability of O=C(O)c1ccccc1S(=O)(=O)NCC(O)COc1ccc(Br)cc1 (stereo not given) , please.
102

Recorded viability of CN(C)CCNc1oc(-c2ccccc2F)nc1C#N , please.
93

Recorded viability of O=C(NCCC1=CCCCC1)C1CCN(S(=O)(=O)c2cccc3cccnc23)CC1 , please.
104

Recorded viability of CCOc1ccc(-c2cc(CCCC(=O)N3CCN(c4ccc(OC)cc4)CC3)no2)cc1 , please.
85

Recorded viability of COCCNC(=O)Cn1cc2c(n1)CCCCC2 , please.
93.5

Recorded viability of Cc1ccc2oc(=O)c3cnn(CC(=O)N4CCCc5ccccc54)c3c2c1 , please.
100

Recorded viability of CCOC(=O)Nc1ccc2c(c1)N(C(=O)OCCN(C)C)c1ccccc1CC2 , please.
94.5

Recorded viability of COc1ccc(NC(=O)C2CCCN2S(=O)(=O)c2cccc3cccnc23)c(OC)c1 (stereo not given) , please.
96

Recorded viability of CN1C(=O)C(O)(CC(=O)c2ccc(F)cc2)c2cc(Br)ccc21 (stereo not given) , please.
85.5

Recorded viability of CC(C(=O)N1CC2(C)CC1CC(C)(C)C2)N1C(=O)c2ccccc2C1=O (stereo not given) , please.
84

Recorded viability of CC(C)c1nccn1S(=O)(=O)c1cc(Cl)ccc1Cl , please.
104

Recorded viability of Cc1nnc(SCC(=O)Nc2ccc3c4c(cccc24)CC3)n1C , please.
102

Recorded viability of COc1ccc(N(C)C(=O)CCS(=O)(=O)c2cccc3nonc23)c(OC)c1 , please.
89

Recorded viability of CC1CN(c2ccc(Oc3ccccc3)cc2)c2nc3c(c(=O)n(CC(N)=O)c(=O)n3C)n2C1 (stereo not given) , please.
107

Recorded viability of O=C(CCn1c(=O)oc2ccccc21)NCc1ccco1 , please.
106

Recorded viability of COc1ccc(S(=O)(=O)NCc2ccc3c(c2)OCO3)cc1C(=O)O , please.
96.5

* * *

Give measured viability for each item. Keep answers brief.
# Measurement protocol: Her2 expression decrease, cell viability multiplex – SKBR3 breast tumor cells, AlphaScreen, ATP viability, primary screen (AID 461);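 further: percent of carrier control wells set as 100% viability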
# Conditions used: SKBR3 Her2 protein level, 18-24 h, measured here: SKBR3 viability, ATP luminescence, at 10 µM
Write the answer as a number in %, unit excluded.

Recorded viability of Cc1ccc2oc(=O)c3cnn(CC(=O)N4CCCc5ccccc54)c3c2c1 , please.
100

Recorded viability of CC(=O)Nc1ccc(S(=O)(=O)Nc2nc3c(s2)CCCC3)cc1 , please.
106

Recorded viability of CCOC(=O)CCCOC(=O)c1ccc(S(=O)(=O)N(C)C)cc1 , please.
95

Recorded viability of Cc1cccc(Cn2c(SCCN3CCCCC3)nc3c2c(=O)[nH]c(=O)n3C)c1 , please.
75

Recorded viability of Cc1ccc(SCC(=O)NCCN2C(=O)CSC2=O)c(C)c1 , please.
99.5

Recorded viability of COc1ccc(S(=O)(=O)Cc2ccc(C(=O)N3CCOCC3)o2)cc1 , please.
106

Recorded viability of Cc1ccccc1Cn1nc(C)c(NC(=O)c2noc3c2CCc2ccccc2-3)c1C , please.
126

Recorded viability of CCOc1cccc(C(=O)N2CCCCC2c2cccnc2)c1 (stereo unspecified) , please.
98.5

Recorded viability of O=c1oc2ccccc2cc1NCc1ccccc1O , please.
90.5

Recorded viability of CCn1cc(C(=O)NCC2CCCO2)c(=O)c2cc(S(=O)(=O)N(C)C3CCCCC3)ccc21 (stereo unspecified) , please.
83.5

Recorded viability of CCCN(CCC)CCNC(=O)c1cc2c(=O)n(C)c3ccccc3c2n1C , please.
89

Recorded viability of CN1CCC(NC(=O)c2cccs2)CC1 , please.
106

Recorded viability of CCC(=O)Nc1cccc(Br)c1 , please.
114

Recorded viability of N#Cc1c2n(c(=O)[nH]c1=O)CCCCC2 , please.
112

Recorded viability of COc1cccc(-c2nnc(NC(C)=O)o2)c1 , please.
93.5

Recorded viability of Cc1nc2sc(C(c3cccs3)N3CCOCC3)c(O)n2n1 (stereo unspecified) , please.
90

Recorded viability of CN(C)c1cc(NC(=O)CN2CCOCC2)c2ccccc2n1 , please.
110

Recorded viability of O=c1oc2c3c4c(cc2s1)CCCN4CCC3 , please.
89

Recorded viability of Cc1cc2nc(-c3ccco3)cc(C(F)(F)F)n2n1 , please.
93.5

Recorded viability of CC(=O)N(c1ccc(Br)cc1)C1C=CS(=O)(=O)C1 (stereo unspecified) , please.
100

Recorded viability of CCOC(=O)N1CCC(NC(=O)C2CCCN(C(=O)c3cc4sccc4n3C)C2)CC1 (stereo unspecified) , please.
113

Recorded viability of COC(=O)C1=C(C)NC(C)=C(C(=O)OC)C1C1CC=CCC1 (stereo unspecified) , please.
85

Recorded viability of COc1ccccc1-n1c(=O)[nH]c2c(C(N)=O)nc(-c3cccnc3)nc21 , please.
82.5

Recorded viability of CC1=C(C(N)=O)C(c2ccccn2)n2nc(-c3ccccc3Cl)nc2N1 (stereo unspecified) , please.
98

Recorded viability of CCCCc1cc(=O)oc2cc(OCC(=O)N(CC)CC)c(Cl)cc12 , please.
98

Recorded viability of COC(=O)Cc1cc(=O)[nH]c(Nc2nc3ccccc3o2)n1 , please.
104

Recorded viability of COC(=O)Cn1c(=NC(=O)CSCC(=O)Nc2cc(C)on2)sc2ccccc21 , please.
89

Recorded viability of COc1cc(NC(=O)C2CCCN2S(=O)(=O)c2cccc3cccnc23)cc(OC)c1OC (stereo unspecified) , please.
72

Recorded viability of CC(=O)c1cccc(NC(=O)CCOc2ccccc2)c1 , please.
96

Recorded viability of CCOC(=O)Cn1ncc(-c2ccccc2)c1N , please.
101

Recorded viability of Cc1cnc(NC(=O)CSc2nnc(COc3c(C)cccc3C)o2)s1 , please.
83

Recorded viability of Cc1ccccc1Cn1ccc(NC(=O)c2onc(C)c2Cl)n1 , please.
107

Recorded viability of Cc1ccc(-n2ncc3c(N4CCCC(C)C4)ncnc32)c(C)c1 (stereo unspecified) , please.
104

Recorded viability of Cc1cccc(-n2ncc3c(NCCCn4ccnc4)ncnc32)c1 , please.
91.5

Recorded viability of Cc1cc(C)cc(N2C(=O)CC(N3CCOCC3)C2=O)c1 (stereo unspecified) , please.
104

Recorded viability of CN(C)c1ccc(NC(=O)Cn2cc3c(n2)CCCC3)cc1 , please.
77.5

Recorded viability of COCCNC(=O)Cn1cc2c(n1)CCCCC2 , please.
93.5

Recorded viability of COC(=O)CN(c1ccc(OC)cc1)S(=O)(=O)c1ccc(OC)c(OC)c1 , please.
89.5

Recorded viability of Cc1nnc(SCC(=O)NCc2ccccc2)s1 , please.
97.5

Recorded viability of O=C(Cn1ncc2c1-c1ccccc1OC2)N1CCc2ccccc21 , please.
83.5

Recorded viability of COc1ccccc1S(=O)(=O)Cc1ccc(C(=O)N2CCOCC2)o1 , please.
113

Recorded viability of CC(C)(NC(=O)N1CCCC1)c1cccc(C(C)(C)NC(=O)N2CCCC2)c1 , please.
98

Recorded viability of COc1ccc(CCNC(=O)c2cc3sc(Cl)cc3n2C)cc1OC , please.
89.5

Recorded viability of CS(=O)(=O)Nc1ccccc1C(=O)O , please.
102

Recorded viability of CCc1ccc(N2CC34C=CC(O3)C(C(=O)OC)C4C2=O)cc1 (stereo unspecified) , please.
102

Recorded viability of CCCCOCCCNC(=O)COc1ccccc1 , please.
103
